# assay-info: in vitro
# particulars: human, Cell viability
parameter-measured: viability at 48 hr, 25 μM (%)
Give the number; % is assumed, so skip it.

Entry O=C(/C=C/c1ccc(O)c(O)c1)OCCc1ccccc1 [CAPE, caffeic acid phenethyl ester] — recorded viability at 48 hr, 25 μM = 42.6

* * *

# assay-info: MTT cell viability assay, Hep G2 cells (serum-free DMEM)
# particulars: human, Hep G2 cells, Cell viability, taxol 10 nM, 48 hr, Table 9
parameter-measured: viability at 48 h, 10 nM (%)
Write down the numeric answer in % and omit the unit.

Recorded viability at 48 h, 10 nM (compound CC(=O)O[C@H]1C(=O)[C@@]2(C)[C@H]([C@H](OC(=O)c3ccccc3)[C@]3(O)C[C@H](OC(=O)[C@H](O)[C@@H](NC(=O)c4ccccc4)c4ccccc4)C(C)=C1C3(C)C)[C@]1(OC(C)=O)CO[C@@H]1C[C@@H]2O [Taxol, paclitaxel] ): 58.1

* * *

# assay-info: MTT cell viability assay, Hep G2 cells (serum-free DMEM)
# particulars: human, Hep G2 cells, Cell viability, no lovastatin 72 hr, then taxol 10 nM 72 hr
parameter-measured: viability at 72 h, 10 nM (%)
Use % as the unit, but write only the number.

Consider CC(=O)O[C@H]1C(=O)[C@@]2(C)[C@H]([C@H](OC(=O)c3ccccc3)[C@]3(O)C[C@H](OC(=O)[C@H](O)[C@@H](NC(=O)c4ccccc4)c4ccccc4)C(C)=C1C3(C)C)[C@]1(OC(C)=O)CO[C@@H]1C[C@@H]2O [Taxol, paclitaxel] . Its measured viability at 72 h, 10 nM is 63.6

* * *

# assay-info: MTT cell viability assay, Hep G2 cells (serum-free DMEM)
# particulars: human, Hep G2 cells, Cell viability, taxol 5 nM alone, 96 hr, Table 10
parameter-measured: viability at 96 h, 5 nM

CC(=O)O[C@H]1C(=O)[C@@]2(C)[C@H]([C@H](OC(=O)c3ccccc3)[C@]3(O)C[C@H](OC(=O)[C@H](O)[C@@H](NC(=O)c4ccccc4)c4ccccc4)C(C)=C1C3(C)C)[C@]1(OC(C)=O)CO[C@@H]1C[C@@H]2O has a reported viability at 96 h, 5 nM of 49.3%

* * *

# assay-info: MTT cell viability assay, Hep G2 cells (serum-free DMEM)
# particulars: human, Hep G2 cells, Cell viability, taxol 5 nM, 72 hr, Table 9
parameter-measured: viability at 72 h, 5 nM
Value and unit, in that order.

For record CC(=O)O[C@H]1C(=O)[C@@]2(C)[C@H]([C@H](OC(=O)c3ccccc3)[C@]3(O)C[C@H](OC(=O)[C@H](O)[C@@H](NC(=O)c4ccccc4)c4ccccc4)C(C)=C1C3(C)C)[C@]1(OC(C)=O)CO[C@@H]1C[C@@H]2O the listed viability at 72 h, 5 nM is 63.7%

* * *

# assay-info: MTT cell viability assay, Hep G2 cells (serum-free DMEM)
# particulars: human, Hep G2 cells, Cell viability, DOX 1 μM, 72 hr
parameter-measured: viability at 72 hr, 1 μM (%)
Give just the number in %; leave the unit off.

Looking up COc1cccc2c1C(=O)c1c(O)c3c(c(O)c1C2=O)C[C@@](O)(C(=O)CO)C[C@@H]3O[C@H]1C[C@H](N)[C@H](O)[C@H](C)O1 , I found its viability at 72 hr, 1 μM recorded as 20
